- System: Saccharomyces cerevisiae
- method-summary: transcriptional activation domain activity (GFP:mCherry ratio, weighted mean of sorted bins, harmonized to initial dataset scale) (arbitrary fluorescence ratio units); higher = stronger transcriptional activation
- condition-set: beta-estradiol 1 µM; induction time 4 h
measure-name: transcriptional activation domain activity
Enter a number only.

GDLGFRDSIVTKVLQDARSNFLVSVSRLLRPIFVLMKKWVRLAVERLNICHSR : 33300
MLWVCTSRKGESRVVCLGLAHLSIWIRGLLVLERILVCSMSLSCWRVGILKCT : 53800
TYPVSMPFDGTLNLDLDMCFLDVTNTDINFSDIFDPNFQFGSYGFPLSLDYDI : 139000
KTSNDLKYLFTFVEYHVFVSLIRRSLSQLDENKEKHEQMIKLYDDILKNIECI : 24800

Query: Consider the sequence shown here: VGRVTDKSSLVYDWPFDESIERNFSTTATAATGESKFDINDNCNRINSKSYSK What is its recorded transcriptional activation domain activity?
Response: 45900

This collection of values is drawn from the supplement of paper PMC12636428.
